Test: Plasma concentration in Sprague-Dawley rat at 3 mg/kg, iv administered as bolus measured at 1 hr by LC/MS/MS analysis
Type: ADME, organism-based
readout_name: concentration at 1 h (ng/mL)
# number only, unit ng/mL dropped from output

*Q* Which concentration at 1 h is reported for this compound? `CC(C)C[C@H](NC(=O)[C@H](Cc1ccccc1)NC(=O)N1CCc2ccccc2C1)B(O)O`
*A* 149

----------
Biological target: Proteasome component C5 (Homo sapiens)
Test: Inhibition of caspase-like activity of 20S proteasome in human HL60 cells using Z-nLPnLDaminoluciferin as substrate at 2 uM after 2 hrs by […] analysis
Assay type: cell-based
// label = fulfilled if inhibition is not less than 70%, otherwise not fulfilled

Here's what some known entries look like.
CC(C)C[C@H](NC(=O)CNC(=O)Nc1cc(Cl)ccc1Cl)B(O)O : not fulfilled
COc1ccc(CNC(=O)[C@H](Cc2ccccc2)NC(=O)N[C@@H](CC(C)C)B(O)O)cc1 : fulfilled
CC(C)C[C@H](NC(=O)N[C@@H](Cc1ccccc1)C(=O)Nc1cnccn1)B(O)O : not fulfilled
CC(C)C[C@H](NC(=O)[C@H](Cc1ccccc1)NC(=O)NCc1ccccc1)B(O)O : fulfilled
COc1ccc(CNC(=O)N[C@@H](Cc2ccccc2)C(=O)N[C@@H](CC(C)C)B(O)O)cc1 : fulfilled

*Q* Has `CC(C)C[C@H](NC(=O)[C@H](Cc1ccccc1)NC(=O)Nc1cccc(OCc2ccccc2)c1)B(O)O` a recorded inhibition greater than or equal to 70%?
*A* not fulfilled

Origin of measurements: ChEMBL document CHEMBL4041506
